# testDescription: Toxicity liver stage against HepG2, at 10uM
# Format: cell-based
# Set-up: test concentration 10 uM, cell line HepG2-A16-CD81EGFP
# conditionLabel: human, HepG2-A16-CD81EGFP cells; read-out: INHIBITION
measurementLabel: cytotoxicity at 10 µM (%)
// note: answer is a bare numeric in %

CSc1ccccc1C(=O)C1CCCN(Cc2ccccn2)C1 (stereo not given): -6.12

Field request: cytotoxicity at 10 µM | item: O=C(N1CCC(O)(C(F)(F)F)C1)C1(c2ccc(Cl)cc2)CC1 (stereo not given)
9.64

What do you get for CC(C)c1cc(O)nc(C2CCCN2C(=O)C2CC2)n1 (stereo not given) ?
-25.1

What do you get for `COc1cccc(NC(=O)NC(C)(C)c2noc(C)n2)c1` ?
7.35

---

# testDescription: Toxicity liver stage against HepG2, at 10uM
# Format: cell-based
# Parameters: test concentration 10 uM, cell line HepG2-A16-CD81EGFP
# conditionLabel: human, HepG2-A16-CD81EGFP cells; read-out: INHIBITION
measurementLabel: cytotoxicity at 10 µM (%)
// note: answer is a bare numeric in %

CC(c1ccccn1)N(C)C(=O)CN1CCN(c2ccccn2)CC1 (configuration not stated): 5.1

Field request: cytotoxicity at 10 µM | item: `CCc1ccc(CN2C[C@H](OC)[C@H]3COC[C@H]32)o1`
5.22

What do you get for `CNC(=O)CCNC(=O)CCc1c(C)nc2cc(O)nn2c1C` ?
-2.7

What do you get for O=C1NC2(CCN(c3ncccn3)CC2)CC1c1cccnc1 (configuration not stated) ?
-71.4

What do you get for `CS(=O)(=O)c1ccc(CNc2nccc(C(F)(F)F)n2)cc1` ?
-23.2

What do you get for `Cc1ccc(CN(C)Cc2nc3ccc(F)cc3[nH]2)cn1` ?
-5.16

What do you get for `Cc1cccc(CNC(=O)CCc2c(C)nc3cc(O)nn3c2C)n1` ?
-4.03

---

# testDescription: Toxicity liver stage against HepG2, at 10uM
# Type: cell-based
# Set-up: test concentration 10 uM, cell line HepG2-A16-CD81EGFP
# conditionLabel: human, HepG2-A16-CD81EGFP cells; read-out: INHIBITION
measurementLabel: cytotoxicity at 10 µM (%)
// note: answer is a bare numeric in %

CCN(C(=O)CCc1ccc2c(c1)OCO2)C1CC(=O)NC1=O (stereo not given): -3.88
Cc1cnn(CC(C)NCc2csc(-c3ccco3)n2)c1 (stereo not given): 3.44
COc1cccnc1NC(=O)COC1CCCC1: 8.06
COc1cccc(NC(=O)c2cc3c([nH]c2=O)CCCC3=O)c1: -3.35
COC(=O)c1ccc2c(c1)CCCN2S(=O)(=O)c1cn(C)c(C)n1: 3.94

Consider now this further compound.
Field request: cytotoxicity at 10 µM | item: `CN1CCN(CCCNC(=O)c2cc(Cl)c3c(c2)OCO3)CC1`
-16.7

---

Documented cytotoxicity at 10 µM across a set of compounds
# testDescription: Toxicity liver stage against HepG2, at 10uM
# Format: cell-based
# Parameters: test concentration 10 uM, cell line HepG2-A16-CD81EGFP
# conditionLabel: human, HepG2-A16-CD81EGFP cells; read-out: INHIBITION
// note: answer is a bare numeric in %

Known results for compounds:
O=C(c1sccc1-n1cnnn1)N1CCC(Cc2ccccc2)CC1: 9.49
O=C(N[C@H]1CCCC[C@@H]1O)c1cccc(-c2nc3ccccc3[nH]2)c1: -3.65
COC(=O)c1sccc1S(=O)(=O)NCC1(O)CCOc2ccccc21 (centres undefined): -10.9
CN1Cc2ccccc2CC1C(=O)N1CCN(CCS(C)(=O)=O)CC1 (centres undefined): 15.1
CCNC(c1cccnc1)c1cc(C)cc(C)c1 (centres undefined): 2.77
Cc1cc(N2CCC(NC(=O)CCc3cnn(C)c3)CC2)nc(C)n1: -2.01
CCOCCC(=O)NCC1CCCO1 (centres undefined): 6.56
CN1CCN(C2CCN(Cc3nnc(C(C)(C)C)o3)CC2)C1=O: -16.2
Cn1nccc1CNC(=O)NC1CCN(c2ncccc2Cl)C1 (centres undefined): 4.37
COc1ccc(-n2ccc(C(=O)NCCn3ccnc3)n2)cc1: -7.2

Field request: cytotoxicity at 10 µM | item: CNc1cccc(C2CCCN(C(=O)c3cncs3)C2)n1 (centres undefined)
-18.3

What do you get for `CCCOC(=O)c1ccc(-c2ccc(/C=C3\C(=O)NC(=N)N3C)o2)cc1` ?
2.91

---

# testDescription: Toxicity liver stage against HepG2, at 10uM
# Assay type: cell-based
# Parameters: test concentration 10 uM, cell line HepG2-A16-CD81EGFP
# conditionLabel: human, HepG2-A16-CD81EGFP cells; read-out: INHIBITION
measurementLabel: cytotoxicity at 10 µM (%)
// note: answer is a bare numeric in %

Known results for compounds:
O=C(Nc1cccs1)N1CC(c2nc(C3CC3)no2)C1: -0.921
Cc1nc2oc(C(=O)N3CCCC3)c(N)c2c2c1CCCC2: -6.95

Field request: cytotoxicity at 10 µM | item: `COCCN1CCc2ncc(CNc3cc(N(C)C)ncn3)n2CC1`
-1.95

What do you get for CC(=O)N1CCCN(C(=O)C(C)n2cncn2)CC1 (stereo unspecified) ?
-0.227

What do you get for O=C1CC(NCc2ccc(Cl)s2)CN1Cc1cccc(F)c1 (stereo unspecified) ?
-0.73

What do you get for O=C(Cc1cccc(F)c1)N1CCCCC1c1ccn2ccnc2n1 (stereo unspecified) ?
-0.619

---

# testDescription: Toxicity liver stage against HepG2, at 10uM
# Assay type: cell-based
# Set-up: test concentration 10 uM, cell line HepG2-A16-CD81EGFP
# conditionLabel: human, HepG2-A16-CD81EGFP cells; read-out: INHIBITION
Documented cytotoxicity at 10 µM across a set of compounds
// note: answer is a bare numeric in %

Known results for compounds:
CCOc1cc(CN(C)CCCC#N)ccc1OC(F)F: -10.3
O=C(Nc1cccnc1)NC1CCN(c2ccccc2OC(F)F)C1 (stereo unspecified): 12.1
O=S(=O)(Cc1nc(C2CC2)no1)c1cc(F)ccc1F: 7.81
Cn1c(NCC(O)c2ccc(F)c(F)c2)c(C#N)c(=O)n(C)c1=O (stereo unspecified): -19.9

Consider now this further compound.
Field request: cytotoxicity at 10 µM | item: CN(C)C1CC2(CCN(C(=O)C3(C#N)CC3)CC2)c2ccccc21 (stereo unspecified)
-113

---

# testDescription: Toxicity liver stage against HepG2, at 10uM
# Assay type: cell-based
# Design: test concentration 10 uM, cell line HepG2-A16-CD81EGFP
# conditionLabel: human, HepG2-A16-CD81EGFP cells; read-out: INHIBITION
measurementLabel: cytotoxicity at 10 µM (%)
// note: answer is a bare numeric in %

Known results for compounds:
O=C(c1csnn1)N1CCc2ccccc21: 5.35
COc1cccc(Nc2nc(C3CCNCC3)c3ccccn23)c1: -2.67
O=S(=O)(Cc1cc(-c2ccccc2)no1)CC1CCCO1 (stereo not drawn): 4.7
COC(=O)c1ccc(N2CCN(CCC#N)C(C)C2)cc1 (stereo not drawn): -11.3
COCCN(CC1CC1)c1nc(CCN)nc2ccccc12: 9.22
CC(C)Oc1ccc(CN2CCCC(N3CCOCC3)C2)cc1CO (stereo not drawn): 1.48
CCc1ccc(-c2cc(C(F)(F)F)nc(N3CCC(N)CC3)n2)cc1: 91.5
CC(=O)N1CCCN(CC(C)(O)c2cccc(C(F)(F)F)c2)CC1 (stereo not drawn): -10.3

Field request: cytotoxicity at 10 µM | item: `CN(C)Cc1nc(C2(NC(=O)Nc3ccccc3)CCCC2)no1`
-0.871

What do you get for `CC(C)C[C@H](NC(=O)N1CCC(Cc2ccccc2)CC1)C(=O)O` ?
-4.13

What do you get for CCc1nnc(C(C)N2CCC(NC(=O)C3CCCCC3)CC2)o1 (stereo not drawn) ?
-8.35

---

# testDescription: Toxicity liver stage against HepG2, at 10uM
# Assay type: cell-based
# Design: test concentration 10 uM, cell line HepG2-A16-CD81EGFP
# conditionLabel: human, HepG2-A16-CD81EGFP cells; read-out: INHIBITION
measurementLabel: cytotoxicity at 10 µM (%)
// note: answer is a bare numeric in %

N#CC1(NC(=O)c2ccc(F)c(Br)c2)CCSC1 (stereo not drawn): -7.08
Cc1cccc(S(=O)(=O)N2C[C@@H]3C[C@H](C(=O)N(C)C)[C@H](C2)O3)c1: -5.18

Field request: cytotoxicity at 10 µM | item: O=C(CN1CCCC1c1nc(-c2ccccn2)no1)N1CCNCC1 (stereo not drawn)
9.28

---

Documented cytotoxicity at 10 µM across a set of compounds
# testDescription: Toxicity liver stage against HepG2, at 10uM
# Assay type: cell-based
# Design: test concentration 10 uM, cell line HepG2-A16-CD81EGFP
# conditionLabel: human, HepG2-A16-CD81EGFP cells; read-out: INHIBITION
// note: answer is a bare numeric in %

Known results for compounds:
COC(=O)N1CCC(CNS(=O)(=O)c2cnn(C)c2)CC1: -9.03
Cc1ccsc1[C@@H]1CCN(C(=O)c2ccc(-c3cc[nH]n3)cc2)C[C@H]1O: 4.28
Cc1cccc(CNC(=O)N(CCCO)C2CCc3ccccc32)n1 (stereo not given): -10.5
Cc1nc(-c2ccco2)ccc1C(=O)NCCN1CCN(C)CC1: 3.88

Field request: cytotoxicity at 10 µM | item: `Cc1ccc(F)cc1S(=O)(=O)Nc1cnc(N2CCCC2)nc1`
3.91
